Tested on: F1*sub RNA substrate (template-directed ligation)
assay notes: fraction ligated after 30 min (ligated reads / total reads); higher = more ligase activity; sequences stand for … in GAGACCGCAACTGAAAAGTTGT…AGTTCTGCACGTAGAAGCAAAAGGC
assay conditions: 42 °C
property measured: fraction ligated
# print the numeric value only

For the sequence shown here, TACATTGTCGTAAACACTTTGGATGGGTTGA [3d554] , give the reported fraction ligated. 0.0244

# get_value(readout='fraction ligated', item= ATCACTTGTCGTAAGACACTTTGGAGGGTTA [3d271] ) 0.0188

Item under review: TTCACTTGTCGTAAGACACTTGGATGGGTTGA [2d40] . Reported fraction ligated? 0.656

Form field: reported fraction ligated of TATCACTTGTCTAGACATTTGGATGGGTTGA [3d1828] 0.814

# query: fraction ligated of entry TATCACTTGTCTAAACACTTGGATGGGTTGA [3d1839] 0.776

# fraction ligated lookup, item TATATTGTCTAAGACACTTTGGATGGGTTGA [3d762] 0.27

// query fraction ligated value for entry TATCACTTGCGTAAGACATTTGGAGGGTTGA [3d1677] 0.0596

Param item = TATCCTTGTGTAAGACACTTGGATGGGTTGA [3d1008] ; retrieve measured fraction ligated. 0.367

// lookup fraction ligated for TATCACTTGTTAAACACTTTGGATGGGTTGA [3d1706] 0.842

For the sequence shown here, TACACTTGTGTAAGAACTTTGGATGGGTTGA [3d622] , give the reported fraction ligated. 0.00557

Tell me the measured fraction ligated of TATCACTTGTCGTAAGAACTTTGGTGGGTTA [3d2174] , please. 0.0479

Suppose we examine the sequence TATCACTTGTCGTAGACCTTGGATGGGTTGA [3d2021] ; what fraction ligated value has been reported? 0.79

Query (sequence): TATCACTTGCGTAAGACCTTTGGAGGGTTGA [3d1670] ; field requested: fraction ligated 0.0866

Which value of fraction ligated has been reported for TATCACTTGTCGTAAGAACTTGATGGGTTGA [3d2160] in the records? 0.788

Need fraction ligated of TATCACTGTCGTAGACACTTTGATGGGTTGA [3d1392] , thanks. 0.787

Fill in the blank: the reported fraction ligated of TATCACTTGTTAAGACACTTTGGATGGGTTGA [2d179] is ____. 0.859
